This listing pairs compounds with measured growth.
# Tested on: NCI-H322M lung
# assayProtocol: NCI-60 one-dose screen, 48 h (100 = growth as untreated, 0 = no growth, -100 = all killed)
# conditionDescription: 10 µM unless noted
# Method: Growth inhibition of the NCI-H322M human Non-Small Cell Lung tumor cell line is measured as a screen for anti-cancer activity. Cells are grown in 96 well plates and exposed to the test compound for 48 hours. Compounds are tested at a single concentration, which is 10^-5 M for most compounds. The reported endpoint is percent growth (GI% or GIPRCNT), where numbers from 0 - 100% represent growth inhibition, and numbers from -100% - 0 represent cell death. […]
This is part of a sample that, as a whole, favours compounds with a hit. Of some 83,000 tested, about 20% had one in any assay. Where a SMILES comes first, the peptide text is derived from it. The star is where a group is joined. Trt = c1ccc(C(c2ccccc2)(c2ccccc2)*)cc1; Cbz = O=C(OCc1ccccc1)*
assayReadout: growth (%)

compound	valueUnit	assayResult
CN(C)C(=O)SC1=C(c2c(Cl)cccc2Cl)C(=O)c2ccccc21	%	98.3
N#CSCc1ccc(Cl)c(CSC#N)c1	%	98.7
Cc1cc(C(C)(CC(C)C)c2ccc(O)c(C)c2)ccc1O	%	94.6
CCOC(=O)/C(=C\c1ccc(-c2ccccc2)cc1)C(C)=O	%	97.3
C[N+](C)=c1ccc2nc3c(cc(NCCCNc4cc5oc6cc(=[N+](C)C)ccc-6nc5c5ccccc45)c4ccccc43)oc-2c1	%	25.3
CCCCCCCCCCCCCCNCc1ccccc1	%	106
Cn1c2ccccc2c2nnc(N/N=C/c3ccccn3)nc21	%	11.8
CCCCCCCCCCCCCCCCOP(=O)([O-])OCC[N+](C)(C)C	%	81.8
CN1c2ccccc2C(C)(C)C12C=Cc1cc(O)ccc1O2 (stereo unspecified)	%	109
CNc1ccc(N)cc1	%	103
O=C1OCc2cccc3cccc1c23	%	119
CNC(=O)N/N=C/c1ccc([N+](=O)[O-])o1	%	88.7
CCC(c1cccc(O)c1)C(CC)c1cccc(O)c1 (stereo unspecified)	%	59.5
c1ccc2c(c1)Nc1cc3ccccc3cc1N2	%	48.5
Cc1cc2nc(CS)[nH]c2cc1C	%	76.4
CCC(CC)COC(=O)c1ccc(O)c(O)c1	%	85.3
CCC(CCCN(CC)CCc1ccccc1)OC(=O)c1cc(OC)c(OC)c(OC)c1 (stereo unspecified)	%	72.2
NC(=S)N/N=C/c1ccc(Cl)s1	%	101
C=CCOc1ccc(N=NC(C#N)C#N)cc1	%	93
CN=C(N)N/N=C(\C)c1ccc2c(c1)Cc1cc(/C(C)=N/NC(N)=NC)ccc1-2	%	-1.93
Cc1ccc2nc(C[n+]3ccc4ccccc4c3)ccc2c1	%	97.6
CC(C)(C)CC(C)(C)c1ccc(OCCSC(=N)N)cc1	%	71.6
CCCCCCCCCCCCCCCC[N+](C)(CCO)Cc1cnc[nH]1 (stereo unspecified)	%	20.3
O=C1N[C@H]2[C@H](CS[C@H]2CCCCC(=O)N(CCP(c2ccccc2)c2ccccc2)CCP(c2ccccc2)c2ccccc2)N1	%	79.2
N#CSCc1ccc(CSC#N)c(Cl)c1	%	106
NC(=O)/C=C/C(=O)c1c(Cl)cccc1Cl	%	19.1
COc1ccc2nc3cc(Cl)ccc3c(NCCNc3c4ccc(Cl)cc4nc4ccc(OC)cc34)c2c1	%	-86.6
O=C(Nc1ccccc1)c1cc(Cl)ccc1O	%	83.1
COC(=O)c1nc(=S)[nH]c(C(=O)OC)c1C(=O)c1ccc2ccccc2c1	%	97.7
S=C(NCCNC(=S)[S][Sn]([c]1ccccc1)([c]1ccccc1)[c]1ccccc1)[S][Sn]([c]1ccccc1)([c]1ccccc1)[c]1ccccc1	%	-99.4
O=C1c2ccccc2C(=O)N1c1ccccc1	%	99.1
Cc1ccc2nc(-[n+]3cc4ccccc4cc3C)ccc2c1	%	85.2
CCOC(=O)/C=C/c1ccc([N+](=O)[O-])o1	%	96
Cc1c2ccccc2c(C)c2c1ccc1ccccc12	%	90.8
CCCCCCC(C)c1ccccc1O (stereo unspecified) (tested in a mixture with another compound)	%	117
Cc1ccc(C(=Nc2ccccc2)N=P(c2ccccc2)(c2ccccc2)c2ccccc2)cc1	%	-29.4
O=C1C2=C(Nc3cc([N+](=O)[O-])ccc3N2)OC1c1c2ccccc2cc2ccccc12 (stereo unspecified)	%	71.8
CC(=Nc1ccc(N(C)C)cc1)c1ccccc1	%	66.5
C/C=C1\SC(=S)NC1=O	%	108
Cc1ccc2c(ccc3c[n+]4c5ccccc5ccc4n32)c1	%	12.7
CNc1ccc2c(c1)c1ccccc1n2C	%	98.4
Nc1nc(N)c2c(ccc3c2ccn3Cc2cccc([N+](=O)[O-])c2)n1	%	-91.1
CCOC(=O)c1c(C)[nH]c(CO)c1C	%	94.9
COC(=O)C(CSC(c1ccccc1)(c1ccccc1)c1ccccc1)NC(=O)C(CC(N)=O)NC(=O)OCc1ccccc1 (stereo not drawn) (Cbz-Asn-Cys(Trt)-OMe; configuration not given here)	%	30.8
OC(CNc1ccnc2cc(Cl)ccc12)CNc1ccnc2cc(Cl)ccc12	%	52.1
Oc1c(Cl)c2ccccc2c2ccccc12	%	100
